meta.source: PubChem BioAssay (NCI)

Test system: MOLT-4 leukemia
Test: NCI tumour cell line growth inhibition, 48 h
# reported TGI; entries follow

| Molecule | Study Target | TGI |
| --- | --- | --- |
| CC(=O)OCC(=O)[C@@]12OC(C)(C)O[C@@H]1C[C@H]1[C@@H]3CC=C4C[C@@H](O)CC[C@]4(C)[C@H]3CC[C@@]12C | MOLT-4 leukemia | > 100 µM |
| CC(C)COCC(CN(Cc1ccccc1)c1ccccc1)N1CCCC1 (stereo unspecified) | MOLT-4 leukemia | 13.1 µM |
| COc1ccc(S(=O)(=O)Nc2cc(/C=C\c3cc(OC)c(OC)c(OC)c3)ccc2OC)cc1 | MOLT-4 leukemia | > 100 µM |
| C1CSC(=[N+]2CC[N+](=C3SCCS3)CC2)S1 | MOLT-4 leukemia | > 100 µM |
| COc1cc(C(O)C(=O)c2nc3ccc([N+](=O)[O-])cc3[nH]c2=O)ccc1O (stereo unspecified) | MOLT-4 leukemia | > 100 µM |
| OC1[C@H](O)CN(OCc2ccccc2)C[C@@H]1O (stereo partly specified) | MOLT-4 leukemia | > 100 µM |
| O=C1C=CC[C@H](/C=C/c2ccccc2)O1 | MOLT-4 leukemia | > 100 µM |
| CCN(C(C)=O)c1cnc(/C=N/NC(N)=S)c2ccccc12 | MOLT-4 leukemia | > 31.5 µM |
| CCCC/C=C1\CCC(C)(CN(C)C)C1=O (stereo unspecified) | MOLT-4 leukemia | > 100 µM |
| C=CC[C@@]1([C@H](C=C)COCc2ccc(OC)cc2)CC[C@]2(C)OC(C)(C)[C@@H](c3ccccc3)N2C1=S | MOLT-4 leukemia | > 100 µM |
| CCCCCCCCCCC(C(O)c1ccccc1)N1CCCCC1 (stereo unspecified) | MOLT-4 leukemia | 5.86 µM |

###

System: BT-549 breast
Test: NCI tumour cell line growth inhibition, 48 h
# reported GI50; entries follow

| Compound | GI50 |
| --- | --- |
| CCCCCCCCCCCCOC1C(C(COC2OC(C3COC(C)(C)O3)C3OC(C)(C)OC23)NC(=O)NS(=O)(=O)c2ccccc2)OC2OC(C)(C)OC21 (configuration not stated) | 3610 nM |
| COC(=O)C1CCCN1C(=O)[C@@H]1CCCN1C(=O)[C@H](Cc1c[nH]c2ccccc12)NC(=S)Nc1cc(C(F)(F)F)cc(C(F)(F)F)c1 (some centres not stated) | 2880 nM |
| Oc1[nH]c2c(Br)cccc2c1C1=Nc2ccccc2/C1=N/OCCN1CCCC1 | 1240 nM |
| CC[C@@]1(OC(=O)CN)C(=O)OCc2c1cc1n(c2=O)Cc2cc3c(N)cccc3nc2-1 | 37.2 nM |
| COC(=O)CCC1CCC(c2cc(F)ccc2F)(S(=O)(=O)c2ccc(Cl)cc2)CC1 (configuration not stated) | 70600 nM |
| COC(=O)C1=C(C(=O)OC)SC(=C(Cl)C(=S)Nc2ccccc2O)S1 | 2340 nM |
| N#CC1=C(N)Oc2c(sc3c(Br)cccc23)C1c1ccc(Br)cc1 (configuration not stated) | 1320 nM |
| Nc1nc(N)c2c(n1)NC(c1ccc(F)cc1)C1CCc3ccccc3C1=N2 (configuration not stated) | 3890 nM |
| CCN1C(=O)N(c2ccccc2)C2NC(=S)N(/N=C/C=C/c3ccccc3)C21 (configuration not stated) | 643 nM |
| FC(F)(F)c1ccc(C#Cc2ccccc2C#Cc2ccccc2)cc1 | > 100000 nM |
| Cc1cc(NCc2cc(Nc3ccnc4cc(Cl)ccc34)ccc2F)nc(N2CCN(C)CC2)n1 | 1770 nM |
| CNC(=O)CC1NC(=O)c2csc(n2)-c2ccc(-c3nc(C4=NC(C(=O)N5CCCC5C(N)=O)CO4)cs3)nc2-c2csc(n2)-c2csc(n2)C(C(C)C)NC(=O)CNC(=O)c2csc(n2)C(C(C)C)NC(=O)c2nc1sc2C (configuration not stated) | > 25000 nM |
| COc1ccccc1N1CCN(CCc2c[nH]c3cc4c(cc23)OCO4)CC1 | 23300 nM |
| COc1ccc(/C=C(\C#N)n2nnc3ccccc32)cc1 | 1110 nM |
| COc1ccc(NC(=O)COCCOCCNC[C@@H]2C(=O)O[C@H]3[C@H]2CC/C(COC(=O)OC/C2=C/CC[C@@]4(C)O[C@H]4[C@H]4OC(=O)[C@@H](CN(C)C)[C@@H]4CC2)=C\CC[C@@]2(C)O[C@@H]32)c(O)c1C(N)=O | 6190 nM |
| CCC[CH2][Sn]([CH2]CCC)([CH2]CCC)[O]C(=O)c1ccc(Cl)cc1Cl | 119 nM |
| O=C(Nc1ccc2[nH]c(=S)sc2c1)Nc1ccccc1F | 32000 nM |

###

Tested on: SK-OV-3 ovarian
Test: NCI tumour cell line growth inhibition, 48 h
Where a SMILES comes first, the peptide text is derived from it. The star is where a group is joined. Ethyl(2-NMe3+) = C[N+](C)(C)CC*; Boc = CC(C)(C)OC(=O)*
# reported TGI; entries follow

| Molecule | TGI |
| --- | --- |
| NCCN.NCCN.O=C([O-])CCl.O=C([O-])CCl.[Co+3].[O-][Cl+3]([O-])([O-])[O-] | > 100 µM |
| COc1ccc(N2C(=O)C(C)SC2c2cc3cc(Br)ccc3nc2Cl)cc1 (centres undefined) | > 100 µM |
| CC(NC(=O)C(Cc1ccc(OCC[N+](C)(C)C)cc1)NC(=O)OC(C)(C)C)C(=O)NC(Cc1ccccc1)C(=O)NCC(N)=O (centres undefined) (Boc-Y(Ethyl(2-NMe3+))AFG-NH2; configuration not given here) | 22.7 µM |
| NC(CCC(=O)NC(CSC(=O)N(O)c1ccccc1)C(=O)NCC(=O)O)C(=O)O (centres undefined) | > 1000 µM |

###

Test system: HOP-92 NSCLC
Assay: NCI tumour cell line growth inhibition, 48 h; in the data active means GI50 below about 0.43 µM; inactive means the rest
Outcome codes: active, inactive

| Compound | Category Label |
| --- | --- |
| CC(NCCC(=O)N(CCC(=O)N(CCC(=O)N(CCC(=O)N(CCC(=O)N(CCC(=O)N(CCC(=O)N(CCC(=O)N(CCC(=O)N(CCC(=O)O)[C@H](C)c1ccccc1)[C@H](C)c1ccccc1)[C@H](C)c1ccccc1)[C@H](C)c1ccccc1)[C@H](C)c1ccccc1)[C@H](C)c1ccccc1)[C@H](C)c1ccccc1)[C@H](C)c1ccccc1)[C@H](C)c1ccccc1)c1ccccc1 (stereo partly specified) | inactive |
| O=C(c1ccccc1)C(Br)C(Br)c1cccc([N+](=O)[O-])c1 (stereo unspecified) | inactive |
| Nc1nc(N)c2c(n1)NC(c1ccc(F)cc1)C1CCc3ccccc3C1=N2 (stereo unspecified) | inactive |
| COc1ccc(NC(=O)COCCOCCNC[C@@H]2C(=O)O[C@H]3[C@H]2CC/C(COC(=O)OC/C2=C/CC[C@@]4(C)O[C@H]4[C@H]4OC(=O)[C@@H](CN(C)C)[C@@H]4CC2)=C\CC[C@@]2(C)O[C@@H]32)c(O)c1C(N)=O | inactive |
| COc1ccc(/C(=N\O)c2cc(C)c(OC)c(C)c2)cc1O | active |
| CN(C)CC1C(=O)O[C@H]2[C@H]1CC/C(COC(=O)c1cc3ccccc3[nH]1)=C\CC[C@@]1(C)O[C@@H]21 (stereo partly specified) | inactive |
| C=C(C)[C@@H]1CC[C@]2(C)[C@H](CC=C3[C@@H]4[C@@H](C)[C@H](C)CC[C@]4(C(N)=O)CC[C@]32C)[C@@]1(C)CCC#N | inactive |
| CC[C@@]1(OC(=O)CN)C(=O)OCc2c1cc1n(c2=O)Cc2cc3c(N)cccc3nc2-1 | active |
| Cc1ccc2c(c1)C(C)Cc1c(Cl)ncnc1N2C (stereo unspecified) | inactive |
| COC(=O)CCC1CCC(c2cc(F)ccc2F)(S(=O)(=O)c2ccc(Cl)cc2)CC1 (stereo unspecified) | inactive |
| COc1ccc(/C=C(\C#N)n2nnc3ccccc32)cc1 | active |

###

Tested on: TK-10 renal
Assay: NCI tumour cell line growth inhibition, 48 h

| Compound | TGI |
| --- | --- |
| FC(F)(F)c1ccc(C#Cc2ccccc2C#Cc2ccccc2)cc1 | > 100 µM |
| O=c1oc2cc(N=Cc3ccc4c(c3)OCO4)ccc2c2ccccc12 | > 100 µM |
| CC(=O)OCC(=O)[C@@]12OC(C)(C)O[C@@H]1C[C@H]1[C@@H]3CC=C4C[C@@H](O)CC[C@]4(C)[C@H]3CC[C@@]12C | > 100 µM |
| CN(C)C=[N+]=[N-] | > 100 µM |
| O=C(NNCc1ccco1)c1cc2ccccc2[nH]1 | > 100 µM |
| C/C=C1/CCC2c3[nH]c4ccccc4c3CCN2C1 (stereo not given) | > 100 µM |
| C=C(C)[C@@H]1CC[C@]2(C)[C@H](CC=C3[C@@H]4[C@@H](C)[C@H](C)CC[C@]4(C(N)=O)CC[C@]32C)[C@@]1(C)CCC#N | 91.5 µM |
| CCOc1cc2c(cc1O)CC[C@@H]1[C@@H]2CC[C@]2(C)C(N)CC[C@@H]12 (stereo not given in full) | 15 µM |
| Cc1cc(Cc2cc(C)cc(C(C)(C)C)c2O)c(O)c(Cc2cc(C)cc(C(C)(C)C)c2O)c1 | 8.59 µM |
| Cc1ccc(C2SC(N)=Nc3c2c(C)nn3C(=O)c2ccccc2O)cc1 (stereo not given) | > 10 µM |
| Nc1[nH]c(=S)c2c(N)n[nH]c2c1C(=O)Nc1ccccc1 | > 100 µM |
| COc1cc(/C=C/C(=O)c2c(C)nc3ccccc3c2/C=C/c2ccc(C)cc2)cc(OC)c1OC | 67 µM |
| NC1=C(c2nc(-c3ccccc3)cs2)C(c2ccc(Br)cc2)c2c(c3ccccc3oc2=O)O1 (stereo not given) | > 150 µg/mL |
| Cc1sc2nc(-c3ccc([N+](=O)[O-])cc3)c(/C=N/N=C(N)N)n2c1C | 2.84 µM |
| O=C(O)CCSC(=O)Nc1ccccc1F | > 100 µM |
| O=C1C=CC[C@H](/C=C/c2ccccc2)O1 | > 53.2 µM |
| COc1ccccc1C1c2cc3c(cc2OC(O)(CO)C1C(=O)O)OCO3 (stereo not given) (tested in a mixture with another compound) | > 100 µM |
| COc1cc(Cl)cc(-c2nn(-c3cccc(NC(=O)Nc4cc(C(F)(F)F)cc(C(F)(F)F)c4)c3)cc2-c2ccncc2)c1 | 14.6 µM |
| CCN(CC)CCn1c2ccccc2c(=O)c2c(O)ccc(O)c21 | 49.2 µM |
| O=C(c1ccccc1)N1OCCC1Nc1ccc(Br)cc1 (stereo not given) | > 10 µM |
